# Measured On: Major prion protein (Homo sapiens)
# Format: functional, cell-based
The source made the active and inactive calls.
Documented IC50 across a set of molecules

CCc1c(C(=O)O)[nH]c2ccc(Br)cc12 = 5950 nM (active)
CCC1(C)Cc2ccccc2-c2[nH]c(=S)[nH]c(=O)c21 (stereo unspecified) = 2930 nM (active)
CCOc1ccc(C2C(C#N)=C(N)SC(N)=C2C#N)cc1OCC = 2320 nM (active)
Sc1[nH]cnc2c3ccccc3nc1-2 = 1500 nM (active)
Cc1cc(NC(=O)CSc2nc(-c3cccs3)nc3ccccc23)no1 = 2150 nM (active)

Prompt: Requested field: IC50. Item: `Cc1sc2ncnc(Sc3ccccc3C(=O)O)c2c1C`
Completion: 908 nM (active)

====

Catalogue of EC50 values
# System: Streptococcus sp. 'group A'
# Method Description: Streptococcus pyogenes SK(-)GAS viability under kanamycin – luminescence, BacTiterGlo, confirmation, counter-screen for streptokinase expression inhibitor project, dose response (AID 1900)
# Format: functional, organism-based
Active and inactive are the calls of the source.

Example entries and their recorded answers appear below.
Oc1nc(Nc2ccc(Cl)cc2Cl)sc1/C=C1\C=Nc2ccccc21 = 1.27 µM (active)
Cc1cc(C)c2ccc(NN)nc2c1O = 3.27 µM (active)
O=C(Nc1ccc2ccccc2c1)c1ccc(NS(=O)(=O)c2ccc(Br)s2)cc1 = 2 µM (active)
CC(=O)Nc1ccc(C2C(=O)c3ccccc3C2=O)cc1 = 31.3 µM (active)
Cc1[nH]c2ccccc2c1C(=O)COC(=O)c1ccc2c(=O)n3c(nc2c1)CCC3 = 1.74 µM (active)

Prompt: # get_value(readout= EC50, system= Streptococcus sp. 'group A') for `COc1ccc(N(CC(=O)NCCSCc2cccc(Cl)c2)S(C)(=O)=O)cc1Cl`
Completion: 13 µM (active)

Prompt: Try this compound next: COc1ccc(C(=O)c2ccc(N3CCN(C4CC(=O)NC4=O)CC3)cc2)cc1F (configuration not stated)
Completion: 2.99 µM (active)

====

The reader will find reported IC50 values listed item by item below.
# Measured On: UniProt:P49327
# Method Description: inhibition of human FAS-TE enzyme activity – biochemical, endpoint fluorescence intensity, uHTS hits, dose response (AID 624327);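 further: fluorescence from hydrolysis of an O-methyl fluorescein acyl ester substrate by the enzyme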
# Assay type: functional
Calls of active or inactive are those of the source.

A selection of reference data follows.
O=C(NNS(=O)(=O)c1ccc([N+](=O)[O-])cc1)c1ccc([N+](=O)[O-])cc1 = 4.95 µM (active)
C[C@@H]1CN([C@H](C)CO)C(=O)c2cccc(NC(=O)NC3CCCCC3)c2O[C@@H]1CN(C)C(=O)Nc1ccc(C(F)(F)F)cc1 = 2.09 µM (active)
O=C(Oc1ccccc1C(=O)Nc1ccccc1)c1ccc(Br)c([N+](=O)[O-])c1 = 4.66 µM (active)
COC(=O)N1C(=O)[C@](CC(C)C)(c2ccccc2)N1C(=O)OC = 0.544 µM (active)
O=C(CN1CCN(S(=O)(=O)c2ccc(Cl)c(C(F)(F)F)c2)CC1)NC(=O)NC1CCCCC1 = 3.5 µM (active)

Now consider the entry below.
Prompt: Any idea what IC50 was measured for `O=C(COC(=O)c1cc([N+](=O)[O-])ccc1N1CCOCC1)Nc1c(Cl)cccc1C(F)(F)F` ?
Completion: 8.05 µM (active)

The reported numbers originate from ChEMBL document CHEMBL1201862.
